Listed here are compounds together with their documented pEC50.
- TARGET: human AT1R (Homo sapiens)
- Sequence (P30556 whole entry): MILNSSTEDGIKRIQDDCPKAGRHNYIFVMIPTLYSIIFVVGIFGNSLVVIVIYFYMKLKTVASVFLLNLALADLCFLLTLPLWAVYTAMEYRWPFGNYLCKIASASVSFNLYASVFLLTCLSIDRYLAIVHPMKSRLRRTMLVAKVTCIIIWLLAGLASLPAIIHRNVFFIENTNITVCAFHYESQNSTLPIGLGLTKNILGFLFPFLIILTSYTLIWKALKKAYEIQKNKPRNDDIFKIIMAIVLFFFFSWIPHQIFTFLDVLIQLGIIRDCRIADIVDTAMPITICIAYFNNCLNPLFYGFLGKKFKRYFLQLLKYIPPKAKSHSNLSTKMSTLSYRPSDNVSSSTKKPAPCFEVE
- ASSAY SUMMARY: IP1 accumulation assay (IP1 G-protein assay), human AT1R
- Format: cell-based
- ASSAY CONTEXT: read-out: EC50
pEC50: −log10 of the molar value. Where a SMILES comes first, the peptide text is derived from it. [ ]: non-standard residue; d: D form. Ac6c = NC1(C(=O)O)CCCCC1; Sar = CNCC(=O)O

COMPOUND	RESULT
CNCC(=O)N[C@@H](CCCNC(=N)N)C(=O)N[C@H](C(=O)N[C@@H](Cc1ccc(O)cc1)C(=O)N1CCC[C@H]1C(=O)N[C@@H](Cc1c[nH]cn1)C(=O)N1CCC[C@H]1C(=O)N[C@@H](C)C(=O)O)C(C)C [SEQ ID NO: 1, Sar-Arg-Val-Tyr-Pro-His-Pro-Ala] (H-[Sar]RVYPHPA-OH)	< 5.00

Read the entry CNCC(=O)N[C@@H](CCCNC(=N)N)C(=O)N[C@H](C(=O)N[C@@H](Cc1ccc(O)cc1)C(=O)N1CCC[C@H]1C(=O)N[C@@H](Cc1c[nH]cn1)C(=O)N1CCC[C@H]1C(=O)N[C@H](C)C(=O)O)C(C)C [SEQ ID NO: 60, Sar-Arg-Val-Tyr-Pro-His-Pro-D-Ala] (H-[Sar]RVYPHP[dA]-OH) and write its reported pEC50.
< 8.89

Note down pEC50 recorded for CNCC(=O)N[C@@H](CCCNC(=N)N)C(=O)N[C@H](C(=O)N[C@@H](Cc1ccc(O)cc1)C(=O)NC1(C(=O)N[C@@H](Cc2c[nH]cn2)C(=O)N2CCC[C@H]2C(=O)N[C@H](C(=O)O)[C@@H](C)O)CCCCC1)C(C)C [SEQ ID NO: 14, Sar-Arg-Val-Tyr-cyHex-His-Pro-Thr] (H-[Sar]RVY[Ac6c]HPT-OH)
< 8.89

----------
- TARGET: human AT1R (Homo sapiens)
- ASSAY SUMMARY: beta-arrestin2 recruitment assay (PathHunter), human AT1R
- Type: cell-based
- ASSAY CONTEXT: read-out: EC50
pEC50: −log10 of the molar value. Where a SMILES comes first, the peptide text is derived from it. [ ]: non-standard residue; d: D form. Ac6c = NC1(C(=O)O)CCCCC1; Sar = CNCC(=O)O
ENDPOINT LABEL: pEC50

These solved cases illustrate the format of a correct answer.
MOLECULE	ENDPOINT LABEL	RESULT
CNCC(=O)N[C@@H](CCCNC(=N)N)C(=O)N[C@H](C(=O)N[C@@H](Cc1ccc(O)cc1)C(=O)NC1(C(=O)N[C@@H](Cc2c[nH]cn2)C(=O)N2CCC[C@H]2C(=O)N[C@@H](C)C(=O)O)CCCCC1)C(C)C [SEQ ID NO: 2, Sar-Arg-Val-Tyr-cyHex-His-Pro-Ala]	pEC50	< 8.49
CNCC(=O)N[C@@H](CCCNC(=N)N)C(=O)N[C@H](C(=O)N[C@@H](Cc1ccc(O)cc1)C(=O)NC1(C(=O)N[C@@H](Cc2c[nH]cn2)C(=O)N2CCC[C@H]2C(=O)N[C@@H](CC(C)C)C(=O)O)CCCCC1)C(C)C [SEQ ID NO: 12, Sar-Arg-Val-Tyr-cyHex-His-Pro-Leu] (H-[Sar]RVY[Ac6c]HPL-OH)	pEC50	< 8.49

Please look at the following molecule next.
Please report the measured pEC50 for CNCC(=O)N[C@@H](CCCNC(=N)N)C(=O)N[C@H](C(=O)N[C@@H](Cc1ccc(O)cc1)C(=O)NC1(C(=O)N[C@@H](Cc2c[nH]cn2)C(=O)N2CCC[C@H]2C(=O)N[C@H](C)C(=O)O)CCCCC1)C(C)C [SEQ ID NO: 57, Sar-Arg-Val-Tyr-cyHex-His-Pro-D-Ala]
< 8.49

Cited source for all entries: patent US8946142B2
